Reference for the values: ChEMBL document CHEMBL1201862

Test system: ACHN
Assay: NCI tumour cell line growth inhibition, 48 h
Active and inactive are the calls of the source. No stated cut-off is given here; in the data, active = GI50 up to about 1.1 µM and inactive = higher.
In this section we review reported GI50 values for a set of compounds.
Quantity measured: GI50

INSERT INTO results (compound, quantity_measured, result) VALUES
  ('[N-]=[N+]=Nc1ccc2c(c1)Sc1ccccc1N2CCCCN1CCN(C(=O)CCNC(=O)Cc2ccc(C(=O)c3ccccc3)cc2)CC1', 'GI50', '3.61 µM (inactive)'),
  ('N=C(N)NS(=O)(=O)c1ccc(NC(=O)c2cccn3c(=O)c4ccccc4nc23)cc1', 'GI50', '81.8 µM (inactive)'),
  ('CC(=O)OC(C)(C)/N=N/c1ccc(Br)cc1', 'GI50', '1.33 µM (inactive)'),
  ('CC(Cc1cccc2c1Nc1ccccc1S2)N(C)CCO (stereo unspecified)', 'GI50', '> 100 µM (inactive)'),
  ('OB(O)c1ccccc1C#Cc1ccccc1B(O)O', 'GI50', '20.7 µM (inactive)'),
  ('N#Cc1ccc(/C=N/NC(=O)CSCC(=O)N/N=C/c2ccc(C#N)cc2)cc1', 'GI50', '> 100 µM (inactive)'),
  ('COc1ccc(/C=C/CN(C)CCc2ccccc2)cc1OC', 'GI50', '> 100 µM (inactive)'),
  ('O=C(CSc1nc2ccc(I)cc2c(=O)n1Cc1ccccc1)NNC(=O)c1ccccc1', 'GI50', '17.7 µM (inactive)'),
  ('CCCCCCCC/C=C1\CCC(CN(C)C)C1=O (stereo unspecified)', 'GI50', '6.61 µM (inactive)'),
  ('COc1ccc2c(c1)C(=O)c1ccc(OC)cc1C2=S', 'GI50', '> 100 µM (inactive)'),
  ('COc1ccc2oc(=O)c(-c3csc(C)n3)cc2c1', 'GI50', '44.4 µM (inactive)');
